target: VIM-2 metallo β-lactamase (Pseudomonas aeruginosa, UniProt Q9K2N0); experiment: VIM-2 metallo-beta-lactamase inhibitor potency, dose response, biochemical, epi-absorbance readout, selective inhibitors (AID 1919)
Mark label 1 only for IC50 values smaller than 4 µM; exact matches and larger values are label 0.

*Q* I wonder whether COc1ccc(OC)c(C2C(C(=O)c3ccco3)C(=O)C(=O)N2Cc2cccnc2)c1 (configuration not stated) has IC50 below 4 µM. Can you tell?
*A* label 1

*Q* I wonder whether O=C1C(=O)N(Cc2cccnc2)C(c2ccccn2)C1C(=O)c1ccccc1 (configuration not stated) has IC50 below 4 µM. Can you tell?
*A* label 0

*Q* I wonder whether COc1ccc(OC)c(C=NNC(=O)Cc2c(C)[nH][nH]c2=O)c1 has IC50 below 4 µM. Can you tell?
*A* label 0

*Q* I wonder whether COc1ccc(C(=O)C2C(=O)C(=O)N(Cc3ccco3)C2c2cc(OC)ccc2OC)cc1 (configuration not stated) has IC50 below 4 µM. Can you tell?
*A* label 0

New cases:
*Q* I wonder whether O=C1C(=O)N(Cc2cccnc2)C(c2ccccn2)C1C(=O)c1ccc(F)cc1 (configuration not stated) has IC50 below 4 µM. Can you tell?
*A* label 1

*Q* I wonder whether COc1cc(OC)c(OC)cc1C=NNC(=O)Cc1c(C)[nH][nH]c1=O has IC50 below 4 µM. Can you tell?
*A* label 0

*Q* I wonder whether O=C1C(=O)N(Cc2cccnc2)C(c2ccccn2)C1C(=O)c1cccs1 (configuration not stated) has IC50 below 4 µM. Can you tell?
*A* label 0
